Listed binders paired with reported Kd
- target-or-test-system: T1, PUF4 RNA-binding domain (Saccharomyces cerevisiae, UniProt P25339 537-888)
- T1 sequence: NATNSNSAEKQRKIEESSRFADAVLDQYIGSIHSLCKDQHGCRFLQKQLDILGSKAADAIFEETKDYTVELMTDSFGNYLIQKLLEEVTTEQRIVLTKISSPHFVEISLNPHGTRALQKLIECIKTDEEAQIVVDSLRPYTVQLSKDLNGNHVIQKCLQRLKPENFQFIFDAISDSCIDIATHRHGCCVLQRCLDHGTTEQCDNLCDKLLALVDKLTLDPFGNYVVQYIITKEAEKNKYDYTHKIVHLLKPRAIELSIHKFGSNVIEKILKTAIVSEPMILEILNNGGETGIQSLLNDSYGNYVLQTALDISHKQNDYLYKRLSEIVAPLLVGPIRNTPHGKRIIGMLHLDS
- assay-name: Mg; RNA-MaP; 20 mM Na-HEPES pH 7.4, 30 mM KOAc, 0.75 mM MgCl2, 0.1% Tween-20, 5% glycerol, 0.1 mg/mL BSA, 2 mM DTT; 25 C; 0.0125-409.6 nM protein
- assay-conditions: tags: N-His6-TEV cleaved; C-SNAP kept, Cy3B-labelled; label: tethered on chip by stalled RNA polymerase
The figure you give is taken to be in nM; do not add the unit.

[[record]]
binder = "Ic_S4_P5E.1_K5.1_C5.1_H5.1_A5.1_[T5A]_[A7T]_F5.1_[T8C]_[T9C]_[A10T]_T5.1 (ssRNA) RNA: UUUGACAACUGAUCGUUCUUUCUUGUAAUUCCUUUCUUUCUCGAUCAGUUGUCUUU"
reported_endpoint = "Kd"
unit_of_measure = "nM"
recorded_result = 179


So what's the measured Kd for this one? Id_ii_S4_P3E.3_K3.2_C3.2_[T-1C]_H3.2_A3.1_F3.1_T3.2_[T9C]_[A10T] (ssRNA) RNA: UUUGACAACUGAUCGUUCUUUCUCCUAUAUAUACUUUCUUUCUCGAUCAGUUGUCUUU 92.9

Sourced from paper PMC9352680
